Tested on: SK-OV-3 ovarian
Assay: NCI-60 one-dose screen, 48 h
Conditions: 10 µM unless noted
Compounds without any hit were thinned out: in the full panel of roughly 83,000, 20% have a hit. Active and inactive are the calls of the source. The calls were made as follows: active = growth percent below 10; inactive = the rest.
Give your call using only these classes: T (active), F (inactive)

Check out these entries, answers already filled in.
NS(=O)(=O)c1cc2c(cc1Cl)NC=NS2(=O)=O; F
COc1ccc(CNC(=O)c2c(C)n([O-])c3ccccc3[n+]2=O)cc1; F
O=C(O)c1ccc2cccnc2c1O; T
CCOC(=O)/C=C1/SC(=Nc2ccc(C#N)cc2)N(Cc2ccco2)C1=O; F
CN1CCN(CCCCCN=c2cc3c(=O)n(CCCCCN4CCN(C)CC4)c(=O)c4c(NCCCCCN5CCN(C)CC5)cc5c(O)n(CCCCCN6CCN(C)CC6)c(=O)c2c5c4-3)CC1; T
Cc1nn(-c2nc3ccccc3s2)c(C)c1Oc1ccccc1O; F
CN1CCN(CCCOc2ccc3ncnc(Nc4ccc(OCc5cccc(F)c5)c(Cl)c4)c3c2)CC1; F
CC(=O)Nc1ccc(C(=O)COc2ccc(/C=C3\CCc4ccccc4C3=O)cc2)cc1; F

Look up the recorded call for CN[C@@H]1C(OC2[C@H](O[C@H]3[C@H](O)[C@@H](O)[C@H](N=C(N)N)[C@@H](O)[C@@H]3N=C(N)N)OC(C)[C@]2(O)CO)OC(CO)C(O)C1O (some centres undefined) in this test. F

For COc1ccccc1-n1c(-c2ccc(O)cc2C)cn2c3c(=O)[nH]c(=O)n(C)c3nc12 , what call appears in the results of this test? F

Dear colleague, could you share the recorded outcome for c1ccc(N2c3nc4ccccc4cc3Sc3cc4ccccc4nc32)nc1 when you have a moment? F

Assay outcome for CCCCCc1c(C)[nH]c(/C=C2\N=C(c3ccc[nH]3)C=C2OCc2ccccc2)c1C : what was it? T

For this molecule, state the assay outcome: C=CCN(/C=C/CN(CC=C)CC=C)CC=C F

Test call for this molecule, please: Nc1ccc(Oc2c(F)c(F)c(Oc3ccc(N)cc3)c(F)c2F)cc1 F

* * *

Test system: T-47D breast
Assay: NCI-60 one-dose screen, 48 h
Settings: 10 µM unless noted
The panel holds about 83,000 compounds, 20% with a hit somewhere; the sample as a whole holds those more often. Activity calls are given as the source filed them. How the source made its calls: active means growth percent below 10; inactive means the rest.
Valid outcomes are listed here; reply with one: active, inactive

Answered examples (5):
O=C(C(=O)N1CCOCC1)c1cn(CCCn2cc(C(=O)C(=O)N3CCOCC3)c3ccccc32)c2ccccc12; inactive
CCCCCCCCCCN1CCC(N2CCCCC2)CC1; active
CC(NC(N)=S)c1ccccc1 (stereo not drawn); inactive
CC(C)N(Cc1ccccc1)c1c(Cl)ssc1=O; inactive
Cn1c(=O)c2[nH]c(=S)n(Cc3ccccc3)c2n(C)c1=O; inactive

Which outcome was entered for the compound O=C1Nc2ccc(C(=O)O)c(O)c2C1=O in this test? inactive

Test call, this compound: c1ccc(Nc2ccc(Nc3nc(-c4ccccc4)nc4ccccc34)cc2)cc1 inactive

// param item: O=C1N=C(N2CCOCC2)S/C1=C\c1cn(-c2ccccc2)nc1-c1ccccc1 ; yields the recorded call inactive

Please let me know the test result on file for CC(NNC(=S)N1CCCCCC1)c1ccc2ccccc2n1 (stereo not drawn) . inactive

Called result for O=C(Nc1ccccc1)P(=O)(O)c1ccccc1 inactive

Give the logged outcome of this assay for the following compound: C#C[C@]1(O)CCC2C3CCc4cc(O)ccc4C3CC[C@@]21C (stereo partly drawn) inactive

Hi, do you know how CSc1nc(N)c2c(n1)N(C)C=NS2(=O)=O came out in this test? inactive

In this assay, the call recorded for NC(=NCCCCCCN=C(N)/N=C(\N)Nc1ccc(Cl)cc1)/N=C(\N)Nc1ccc(Cl)cc1 was what? inactive
